We begin with a simple list: items and their reported IC50.
# TARGET_UNDER_TEST: SHP2 (Homo sapiens (Human), UniProt Q06124)
# Sequence (Q06124 whole entry): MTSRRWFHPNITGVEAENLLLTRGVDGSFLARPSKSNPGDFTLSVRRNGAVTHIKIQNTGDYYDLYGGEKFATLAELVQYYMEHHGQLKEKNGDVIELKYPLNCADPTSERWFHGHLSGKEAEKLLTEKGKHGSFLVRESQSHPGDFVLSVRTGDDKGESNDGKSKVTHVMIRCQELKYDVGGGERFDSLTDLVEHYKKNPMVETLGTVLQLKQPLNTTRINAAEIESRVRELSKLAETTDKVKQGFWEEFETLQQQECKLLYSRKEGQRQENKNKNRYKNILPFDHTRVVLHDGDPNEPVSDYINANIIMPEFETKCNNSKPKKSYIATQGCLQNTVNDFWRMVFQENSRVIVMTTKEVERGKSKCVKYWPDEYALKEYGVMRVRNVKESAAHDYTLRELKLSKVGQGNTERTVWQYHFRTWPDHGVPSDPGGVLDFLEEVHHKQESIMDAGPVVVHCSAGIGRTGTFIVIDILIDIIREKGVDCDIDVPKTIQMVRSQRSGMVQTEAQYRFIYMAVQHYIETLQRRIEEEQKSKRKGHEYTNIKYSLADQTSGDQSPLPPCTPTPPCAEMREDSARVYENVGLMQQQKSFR
# METHOD_DESCRIPTION: SHP2 allosteric inhibition assay (DiFMUP prompt fluorescence)
# Type: biochemical
# SETUP_CONDITIONS: 0.2 nM SHP2 activated with 0.5 μM Activating Peptide 1 or 2; substrate DiFMUP; Table 2, class symbols

LINE_NOTATION: Cc1nc(N2CCC3(CC2)CO[C@@H](C)[C@H]3N)n2ccnc2c1-c1cccc2cc[nH]c12
IC50: ≤ 50 nM

LINE_NOTATION: CC1(O)CCN(c2ncc(Sc3ccnc(N)c3Cl)c3nccn23)CC1
IC50: > 500 nM

LINE_NOTATION: COc1cccc(-c2cnc(N3CCC4(CC3)CO[C@@H](C)[C@H]4N)n3ccnc23)c1Cl
IC50: 50 to 500 nM

LINE_NOTATION: Nc1nccc(Sc2cnc(N3CCNCC3)n3ccnc23)c1Cl
IC50: > 500 nM

LINE_NOTATION: NCCC1CN(c2ncc(Sc3ccnc(N)c3Cl)c3nccn23)C1
IC50: > 500 nM

LINE_NOTATION: C[C@H](O)CNc1ncc(Sc2ccnc(N)c2Cl)c2nccn12
IC50: > 500 nM

LINE_NOTATION: COc1cc(Cl)c(Cl)c(-c2c(C)nc(N3CCC4(CC3)CO[C@@H](C)[C@H]4N)n3ccnc23)c1
IC50: ≤ 50 nM

LINE_NOTATION: Cc1nc(N2CCC3(CC2)CO[C@@H](C)[C@H]3N)n2ccnc2c1-c1ccc2ccnn2c1
IC50: ≤ 50 nM

LINE_NOTATION: Cc1nc(N2CCC3(CC2)CO[C@@H](C)[C@H]3N)n2ccnc2c1-c1ccc2c(c1Cl)OCC2
IC50: ≤ 50 nM

LINE_NOTATION: N[C@@H]1CCCC12CCN(c1ccc(-c3cccc(Cl)c3Cl)c3cncn13)CC2
IC50: > 500 nM

LINE_NOTATION: C[C@@H]1OCC2(CCN(c3cnc(Sc4ccnc(N)c4Cl)c4nccn34)CC2)[C@@H]1N
IC50: > 500 nM

LINE_NOTATION: Cc1nc(N2CCC3(CC2)CO[C@@H](C)[C@H]3N)n2ccnc2c1-c1cc(Cl)cc2cc[nH]c12
IC50: ≤ 50 nM

LINE_NOTATION: CC1(N)CCN(c2ncc(-c3cccc(Cl)c3Cl)c3nccn23)CC1
IC50: > 500 nM

LINE_NOTATION: Cc1nc(N2CCC3(CC2)CO[C@@H](C)[C@H]3N)n2ccnc2c1-c1ccc2cn[nH]c2c1
IC50: ≤ 50 nM

LINE_NOTATION: NC(=O)CNc1ncc(Sc2ccnc(N)c2Cl)c2nccn12
IC50: > 500 nM

LINE_NOTATION: Cc1nc(N2CCC3(CC2)CO[C@@H](C)[C@H]3N)n2ccnc2c1-c1cccc2nc[nH]c12
IC50: ≤ 50 nM

LINE_NOTATION: Nc1nccc(Sc2cnc(N3CC[C@@H](N)C3)n3ccnc23)c1Cl
IC50: > 500 nM
